Origin of measurements: the supplement of paper PMC10201428

B1: library; a variant is named by its letters at N, in order (parent)
chain: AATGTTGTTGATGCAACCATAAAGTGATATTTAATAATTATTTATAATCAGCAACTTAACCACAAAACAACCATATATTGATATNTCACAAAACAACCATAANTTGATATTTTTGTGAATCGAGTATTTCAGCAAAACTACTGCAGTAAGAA

# Variants of: B1
# assay_remarks: relative integration efficiency (T-RL orientation) vs wild-type transposon end (log2 (normalized fold change)); transposon end mutated: left end; higher = more efficient transposition
# conditions: with VchCAST RNA-guided transposition machinery (E. coli BL21(DE3) host, lacZ target)
Label 1 when relative integration efficiency (log2) >= -0.1; otherwise 0.

Answered cases to consult:
sequence_change="CG A107C" group=0
sequence_change="CG A81G" group=0
sequence_change="CG A109T" group=1
sequence_change="CC A21T A22T A23T G24C A75T T76A A77T T78A A101T A102T T104A" group=0
sequence_change="CG T76G A77C T78G T79G" group=0
sequence_change="CG C55G T56A" group=1
sequence_change="CG C89G A90T A91T A92T" group=1

Textbook exercise: given the entry CG A77T , state whether its relative integration efficiency (log2) is greater than or equal to -0.1.
0
